Test system: UT-SCC-24B
Assay: High throughput drug screening (CellTiter-Glo, DSS)
Type: cell-based, human
Details: 72 h, 10-100,000 nM, myogel, non-irradiated

compound	drug sensitivity score (DSS)
NCCCCCCN1C(=O)N(CCCCCCN)C(=O)C(CCCc2ccccc2)(CCCc2ccccc2)C1=O	18,3
CNCCCCN1C(=O)N(CCCCNC)C(=O)C(CCCc2ccccc2)(CCCc2ccccc2)C1=O	16,4
CN(C)CCN1C(=O)N(CCN(C)C)C(=O)C(CCCc2ccccc2)(CCCc2ccccc2)C1=O	17,8
N.N.[Cl][Pt][Cl] [Cisplatin, cisplatin, reference compound]	11,6
CN(C)CCCCN1C(=O)N(CCCCN(C)C)C(=O)C(CCCc2ccccc2)(CCCc2ccccc2)C1=O	18,9
NCCCCCN1C(=O)N(CCCCCN)C(=O)C(CCCc2ccccc2)(CCCc2ccccc2)C1=O	18,2
NCCN1C(=O)N(CCN)C(=O)C(CCCc2ccccc2)(CCCc2ccccc2)C1=O	18,3
